ASSAYED_TARGET: human GPBAR1 receptor (Homo sapiens, UniProt Q8TDU6)
Construct: expressed in transfected cells
ASSAY_SUMMARY: functional cAMP assay in CHO-dhfr(minus) cells expressing human GPBAR1 receptors
Format: cell-based
CONDITIONS_USED: human EC50, functional cAMP assay, 30 min at 30° C.
pEC50: −log10 of the molar value.
MEASURED_ATTRIBUTE: pEC50

Cc1cc(Cl)ccc1[C@@H](C/C(=N\O)c1ccc(=O)n(C)c1)c1ccc(-c2ccc(NS(C)(=O)=O)cc2)cc1 (single isomer, unassigned) [Example 416]: 7.74

A: Cn1cc(/C(C[C@@H](c2ccc(-c3ccc(C(=O)O)c(F)c3)cc2)c2ccc(Cl)cc2F)=N/O)ccc1=O (single isomer, unassigned) [Example 464]
B: Cc1cc(C)cc(C(CC(=NO)c2ccncc2)c2ccc(N(C)C)cc2)c1 (racemic) [Example 18]
C: Cc1cc(F)ccc1[C@@H](C/C(=N\O)c1ccc(=O)n(C)c1)c1ccc(Br)cc1 (single isomer, unassigned) [Example 405]
Asked: Arrange these compounds by their pEC50, starting with the largest number. Reply with the labels, ordered as the question asks.
Given back: C, A, B

1: Cc1cc(Cl)ccc1C(C/C(=N\O)c1ccc(=O)n(C)c1)c1ccc(Oc2cccc(C(=O)O)c2)cc1 (stereo not shown) [Example 346]
2: COc1cc(-c2ccc(C(C/C(=N\O)c3ccnc(C)c3)c3ccc(Cl)cc3F)cc2)ccc1C(=O)O (stereo not shown) [Example 455]
Asked: # compare pEC50 for 1 vs 2 ; return the one with the smaller value # respond with the chosen item's label
Given back: 1
(1: 7.38, 2: 7.92)

---

ASSAYED_TARGET: human GPBAR1 receptor (Homo sapiens, UniProt Q8TDU6)
Construct: expressed in transfected cells
ASSAY_SUMMARY: functional cAMP assay in CHO-dhfr(minus) cells expressing human GPBAR1 receptors
Format: cell-based
CONDITIONS_USED: human EC50, functional cAMP assay, 30 min at 30° C.
MEASURED_ATTRIBUTE: EC50 (µM)

CS(=O)(=O)c1ccc(-c2cccc(C(C/C(=N\O)c3ccncc3)c3ccccc3)c2)cc1 (stereo not shown): 2.19
Cc1cc(C(CC(c2ccc(CCCO)cc2)c2ccccc2C)=NO)ccn1 (racemic): 0.012
CCOC(=O)c1ccc(-c2ccc([C@H](C/C(=N\O)c3ccc(=O)n(C)c3)c3ccc(Cl)cc3F)cc2)s1 (single isomer, unassigned): 0.42

I: Cn1cc(/C(CC(CCCC(F)(F)F)c2ccc(Br)cc2)=N/O)ccc1=O (stereo not shown)
II: Cn1cc(/C(CC(c2ccc(-c3ccc(CC(=O)O)cc3)cc2)c2ccc(Cl)cc2F)=N/O)ccc1=O (stereo not shown) [Example 460]
Asked: Looking only at measured EC50, which entry is lower, I or II ? Answer = label.
Given back: II

a: Cc1cc(/C(CC(c2ccc(-c3ccc(C(=O)O)cc3)cc2)c2ccc(Cl)cc2C)=N/O)ccn1 (stereo not shown) [Example 139]
b: Cc1cnc(F)c(/C(CC(c2ccc(Br)cc2)c2ccccc2C)=N/O)c1 (stereo not shown)
Asked: Of a and b , whose reported EC50 is numerically smaller? // return label of chosen record
Given back: a

---

ASSAYED_TARGET: human GPBAR1 receptor (Homo sapiens)
Construct: expressed in transfected cells
ASSAY_SUMMARY: functional cAMP assay in CHO-dhfr(minus) cells expressing human GPBAR1 receptors
Assay type: cell-based
CONDITIONS_USED: human EC50, functional cAMP assay, 30 min at 30° C.
MEASURED_ATTRIBUTE: EC50 (nM)

Here is how some compounds turned out for EC50.
Cc1ccccc1C(CC(=NO)c1ccncc1)c1cccc(Br)c1 (racemic): 40
Cn1cc(/C(CC(c2ccc(Br)cc2)c2ccccc2Cl)=N/O)ccc1=O (stereo not drawn): 12
Cn1cc(/C(CC(c2ccc(-c3ccc(C(=O)O)c(F)c3)cc2)c2ccc(Cl)cc2Cl)=N/O)ccc1=O (single isomer, unassigned) [Example 475]: 166
Cc1cc(Cl)ccc1C(C/C(=N\O)c1ccc(=O)n(C)c1)c1ccc(-c2ccc(C(=O)NCc3nnn[nH]3)cc2)cc1 (stereo not drawn): 18
Cc1ccccc1C(CC(=NO)c1ccnc(Cl)c1)c1ccc(Br)cc1 (racemic): 227

I: Cc1cc(/C(C[C@H](c2ccc(N3CC(C(=O)O)C3)cc2)c2ccccc2C)=N/O)ccn1
II: Cc1ccccc1C(CC(=NO)c1ccncc1)c1ccc(-c2cccc(S(C)(=O)=O)c2)cc1 (racemic)
Asked: // which entry reports the smaller EC50, I or II ? Answer = label.
Given back: I

A: Cc1cc(/C(C[C@H](c2ccc(S(C)(=O)=O)cc2)c2ccccc2C)=N/O)ccn1
B: Cn1cc(/C(CC(c2ccccc2Cl)C2CC[N+](C)(C)CC2)=N/O)ccc1=O (stereo not drawn)
C: Cc1ccccc1C(C/C(=N\O)c1cnccn1)c1ccc(Br)cc1 (stereo not drawn)
Asked: # rank_down: sort by EC50, max first Lab note: final answer is the ordered label list.
Given back: B, C, A
(B: 9640 nM, C: 6140 nM, A: 14 nM)

P: CC(=O)N1CC(c2ccc([C@@H](C/C(=N\O)c3ccnc(C)c3)c3ccccc3C)cc2)C1
Q: Cn1cc(/C(CC(c2ccc(Br)cc2)C2CCC2)=N/O)ccc1=O (stereo not drawn)
R: Cc1cc(C(CC(c2ccc(-c3ccc(C(=O)NCC(=O)O)cc3)cc2)c2ccccc2C)=NO)ccn1 (racemic)
S: Cc1cc(/C(C[C@H](c2ccc(-c3ccc(C(=O)NCC(=O)O)cc3)cc2)c2ccccc2C)=N/O)ccn1
Asked: Ascending sort, EC50. Ranked list of labels, please, in the requested order.
Given back: S, R, P, Q

---

ASSAYED_TARGET: human GPBAR1 receptor (Homo sapiens)
Construct: expressed in transfected cells
ASSAY_SUMMARY: functional cAMP assay in CHO-dhfr(minus) cells expressing human GPBAR1 receptors
Assay type: cell-based
CONDITIONS_USED: human EC50, functional cAMP assay, 30 min at 30° C.
pEC50: −log10 of the molar value.
MEASURED_ATTRIBUTE: pEC50

P: Cn1cc(/C(CC(c2ccc(Br)cc2)C2CCCC2)=N\O)ccc1=O (stereo not shown)
Q: Cc1cc(Cl)ccc1C(C/C(=N\O)c1ccc(=O)n(C)c1)c1ccc(NS(=O)(=O)C2CC2)cc1 (stereo not shown)
R: Cn1cc(C(CC(c2ccc(C(=O)NCCO)c(F)c2)c2ccccc2Cl)=NO)ccc1=O (mixture of isomers)
S: Cc1cc(/C(C[C@H](c2ccc(N[C@H]3C[C@@H](C(=O)O)C3)cc2)c2ccccc2C)=N/O)ccn1
T: Cc1cnc(F)cc1C(CC(c1ccc(Br)cc1)c1ccccc1C)=NO (racemic)
Asked: // sort entries: pEC50, high to low Enter labels, ranked according to the request.
Given back: T, S, R, Q, P
(T: 7.77, S: 7.26, R: 6.59, Q: 6.31, P: 5.71)

P: Cc1cc(/C(CC(c2ccc(C(=O)NC[C@@H](C)O)cc2)c2ccc(F)cc2F)=N/O)ccn1 (stereo partly shown)
Q: Cc1ccccc1C(C/C(=N\O)c1ccc(=O)n(C)c1)c1ccc(C(=O)NCCS(C)(=O)=O)cc1 (stereo not shown)
Asked: Parameter metric = pEC50. Return the lower-valued option from P and Q . // output: label of the selected item
Given back: Q

---

ASSAYED_TARGET: human GPBAR1 receptor (Homo sapiens)
Construct: expressed in transfected cells
Sequence (Q8TDU6 1-330): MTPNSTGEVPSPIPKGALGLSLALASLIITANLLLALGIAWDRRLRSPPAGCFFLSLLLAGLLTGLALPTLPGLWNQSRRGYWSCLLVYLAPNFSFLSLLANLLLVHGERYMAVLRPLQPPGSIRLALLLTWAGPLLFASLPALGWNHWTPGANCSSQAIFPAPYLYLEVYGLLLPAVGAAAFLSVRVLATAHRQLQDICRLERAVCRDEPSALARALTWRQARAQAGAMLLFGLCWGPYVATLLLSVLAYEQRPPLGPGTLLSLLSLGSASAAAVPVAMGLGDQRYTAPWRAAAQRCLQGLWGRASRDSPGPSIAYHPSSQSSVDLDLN
ASSAY_SUMMARY: functional cAMP assay in CHO-dhfr(minus) cells expressing human GPBAR1 receptors
Format: cell-based
CONDITIONS_USED: human EC50, functional cAMP assay, 30 min at 30° C.
pEC50: −log10 of the molar value. Where a name gives a salt, the structure may show the parent alone.
MEASURED_ATTRIBUTE: pEC50

A: Cn1cc(/C(CC(c2ccc(Br)cc2)c2ccc(F)cc2S(C)(=O)=O)=N/O)ccc1=O (centres unmarked) [Example 409]
B: Cc1ccccc1C(C/C(=N\O)c1ccc(=O)n(C)c1)c1ccc(C(=O)N[C@@H](CO)C(C)C)cc1 (some centres unmarked) [Example 305]
Asked: Dear colleague, could you let me know whether A or B has the lower recorded pEC50? Thanks. Identify your pick by its label.
Given back: B

A: Cc1cc(/C(CC(c2ccc(Br)cc2)c2ccc(Cl)cc2C)=N/O)ccn1 (centres unmarked) [Example 138]
B: Cc1ccccc1[C@H](C/C(=N\O)c1ccc(=O)n(C)c1)c1ccc(-c2nnn[nH]2)cc1 [Example 500, sodium salt]
C: Cc1cc(Cl)ccc1C(C/C(=N\O)c1ccc(=O)n(C)c1)c1ccc(-c2ccc(C(=O)NCC(=O)O)cc2)cc1 (single isomer, unassigned; (+)) [Example 256]
D: Cc1cc(/C(C[C@H](c2ccc(C3CCC(C(=O)O)CC3)cc2)c2ccc(Cl)cc2C)=N/O)ccn1 (some centres unmarked) [Example 503]
E: Cc1ccccc1C(CC(=NO)c1ccc2ncccc2c1)c1ccc(Br)cc1 (racemic) [Example 125]
Asked: Please give the order of these compounds when sorted by pEC50, largest value leading. Your task in answering is to list the labels in the requested order.
Given back: C, D, A, B, E

1: Cc1cc(/C(C[C@H](c2ccc(-c3ccc(C(=O)O)cc3)cc2)c2ccc(F)cc2C)=N/O)ccn1 (single isomer, unassigned) [Example 397]
2: Cc1cc(/C(C[C@H](c2ccc(C3CCN(C(=O)OC(C)(C)C)CC3)cc2)c2ccc(Cl)cc2C)=N/O)ccn1 [Example 387]
3: Cc1cc(F)ccc1C(C/C(=N\O)c1ccc(=O)n(C)c1)c1ccc(-c2ccc(C(=O)NCC(=O)O)cc2)cc1 (centres unmarked) [Example 258]
4: Cn1cc(/C(CC(c2ccc(=O)n(C)c2)c2ccccc2Cl)=N/O)ccc1=O (centres unmarked) [Example 250]
Asked: # ascending order, key=pEC50 Sort the labels as requested; that list is your answer.
Given back: 4, 2, 1, 3

A: Cc1ccccc1C(CC(=NO)c1ccncc1)c1cccc(-c2ccc(S(C)(=O)=O)cc2)c1 (racemic) [Example 29]
B: Cc1cc(C(=O)O)ccc1-c1ccc(C(C/C(=N\O)c2ccc(=O)n(C)c2)c2ccc(Cl)cc2Cl)cc1 (single isomer, unassigned) [Example 477]
Asked: Just curious, which one has the larger pEC50 reading, A or B ? Answer with the label corresponding to your selection.
Given back: B
(B: 6.95, A: 6.40)
